Subject of test: Bcl-2 protein (histag-Bcl-2, UniProtKB P10415) (Homo sapiens (Human), UniProt P10415)
Sequence (P10415 whole entry): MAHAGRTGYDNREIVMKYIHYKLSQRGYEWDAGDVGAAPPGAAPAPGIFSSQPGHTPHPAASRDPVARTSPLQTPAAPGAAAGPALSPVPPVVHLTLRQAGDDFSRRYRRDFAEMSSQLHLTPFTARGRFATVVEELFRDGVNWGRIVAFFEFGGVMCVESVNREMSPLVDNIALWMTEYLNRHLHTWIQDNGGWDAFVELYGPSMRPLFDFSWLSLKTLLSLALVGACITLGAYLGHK
Assay comment: Inhibition of Bcl-2 by the fluorescence polarisation technique
Type: binding
Experimental conditions: fluorescence polarisation test; incubation for 2 hours; read-out: IC50 (nM) Bcl-2 FP
Description: For partial inhibitors, the percentage fluorescence polarisation inhibition for a given concentration of the test compound is indicated.
IC50 by entry:
The reply must contain the numeric value and, after it, the unit.

Below, 5 molecules whose answers are already recorded.
>  <Smiles structure>
C[C@@H]1Cc2ccccc2CN1C(=O)c1cc2c(cc1-c1cc(C(=O)N(c3ccccc3)c3ccc(O)cc3)c3n1CCCC3)CCN(C(=O)Cc1ccccc1)C2

>  <IC50>
4.3 nM

$$$$
>  <Smiles structure>
Cc1ccc(CC(=O)N2CCc3cc(-c4cc(C(=O)N(C)c5ccc(O)cc5)c5n4CCCC5)c(C(=O)N4Cc5ccccc5C[C@H]4C)cc3C2)cc1

>  <IC50>
4 nM

$$$$
>  <Smiles structure>
CCCN(C(=O)c1cc(-c2cc3c(cc2C(=O)N2Cc4ccccc4C[C@H]2CN2CCOCC2)CN(C(=O)Cc2ccccc2)CC3)n(C)c1C)c1ccc(O)cc1

>  <IC50>
2.6 nM

$$$$
>  <Smiles structure>
CC(=O)N(C)c1ccc(OC(=O)N2CCc3cc(-c4cc(C(=O)N(C)c5ccc(O)cc5)c(C)n4C)c(C(=O)N4Cc5ccccc5C[C@H]4CN4CCOCC4)cc3C2)cc1

>  <IC50>
4.6 nM

$$$$
>  <Smiles structure>
C[C@@H]1Cc2ccccc2CN1C(=O)c1cc2c(cc1-c1cc(C(=O)N(C)c3ccc(O)cc3)c3n1CCCC3)CCN(S(=O)(=O)Cc1ccccc1)C2

>  <IC50>
3.6 nM

$$$$

Okay, now this molecule:
Value lookup for IC50; key = Cc1c(C(=O)N(C)c2ccc(O)cc2)cc(-c2cc3c(cc2C(=O)N2Cc4ccccc4C[C@H]2CN2CCN(C)CC2)CN(C(=O)C(F)(F)F)CC3)n1C 23 nM

---

IC50 by entry:
System: RS4; 11 leukaemia cell line
Assay comment: In vitro cytotoxicity, Microculture Tetrazolium Assay (MTT)
Type: cell-based
Experimental conditions: Homo sapiens, 11 cells exposed for 48 hours

Below, 3 compounds whose answers are already recorded.
>  <Compound>
C[C@@H]1Cc2ccccc2CN1C(=O)c1cc2c(cc1-c1cc(C(=O)N(C)c3ccc(O)cc3)c3n1CCCC3)CCN(C(=O)Cc1ccc(CN3CCOCC3)cc1)C2 [Example 129]

>  <Subject of test>
RS4; 11 leukaemia cell line

>  <Readout label>
IC50

>  <Value measured>
39 nM

$$$$
>  <Compound>
Cc1c(C(=O)N(C)c2ccc(O)cc2)cc(-c2cc3c(cc2C(=O)N2Cc4ccccc4C[C@H]2CN2CCN(C)CC2)CN(C(=O)Oc2ccccc2)CC3)n1C [Example 214]

>  <Subject of test>
RS4; 11 leukaemia cell line

>  <Readout label>
IC50

>  <Value measured>
4.1 nM

$$$$
>  <Compound>
CN(C(=O)c1cc(-c2cc3c(cc2C(=O)N2Cc4ccccc4C[C@H]2CN2CCOCC2)CN(C(=O)OC(C)(C)C)C3)n2c1CCCC2)c1ccc(O)cc1 [Example 6]

>  <Subject of test>
RS4; 11 leukaemia cell line

>  <Readout label>
IC50

>  <Value measured>
> 1880 nM

$$$$

Value lookup for IC50; key = Cc1c(C(=O)N(C)c2ccc(O)cc2)cc(-c2cc3c(cc2C(=O)N2Cc4ccccc4C[C@H]2CN(C)C)CN(C(=O)C(F)(F)F)CC3)n1C [Example 782] 112 nM

Value lookup for IC50; key = CCCCN(C(=O)c1cc(-c2cc3c(cc2C(=O)N2Cc4ccccc4C[C@H]2CN2CCOCC2)CN(C(=O)Cc2ccccc2)CC3)n(C)c1C)c1ccc(O)cc1 [Example 232] 11 nM

Value lookup for IC50; key = Cc1c(C(=O)N(C)c2ccc(O)cc2)cc(-c2cc3c(cc2C(=O)N2Cc4ccccc4C[C@H]2CN2CCOCC2)CN(C(=O)CCC2CCCCC2)CC3)n1C [Example 132] 32 nM

Value lookup for IC50; key = Cc1c(C(=O)N(C)c2ccccc2)cc(-c2cc3c(cc2C(=O)N2Cc4ccccc4C[C@H]2CN2CCOCC2)CN(C(=O)Oc2ccccc2)CC3)n1C [Example 115] 24 nM

Taken from patent US9809574B2.
